biological target: T1, mFc tagged human SIRPα v1 ECD recombinant protein (human, UniProt P78324 31-373); assay: competitive ELISA; row antibody in excess in solution, coated mAb 042c
T1 construct: extracellular domain; not shown: mouse Fc tag
T1 sequence (P78324 31-373): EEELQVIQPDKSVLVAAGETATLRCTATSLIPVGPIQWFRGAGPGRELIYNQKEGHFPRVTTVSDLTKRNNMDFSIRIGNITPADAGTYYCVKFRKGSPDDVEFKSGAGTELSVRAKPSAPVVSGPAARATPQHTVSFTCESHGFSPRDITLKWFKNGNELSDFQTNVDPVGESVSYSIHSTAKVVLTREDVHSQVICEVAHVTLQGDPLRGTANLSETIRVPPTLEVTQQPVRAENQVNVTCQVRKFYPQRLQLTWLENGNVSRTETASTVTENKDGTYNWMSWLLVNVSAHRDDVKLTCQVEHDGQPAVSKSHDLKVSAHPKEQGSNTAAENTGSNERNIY

binder	% Competition (%)
Reference anti-SIRPα antibody hu1H9G4 (antibody, human IgG4, V domains shown) VH: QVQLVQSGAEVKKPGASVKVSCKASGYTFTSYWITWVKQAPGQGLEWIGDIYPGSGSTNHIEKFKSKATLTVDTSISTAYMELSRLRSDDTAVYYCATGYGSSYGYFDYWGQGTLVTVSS VL: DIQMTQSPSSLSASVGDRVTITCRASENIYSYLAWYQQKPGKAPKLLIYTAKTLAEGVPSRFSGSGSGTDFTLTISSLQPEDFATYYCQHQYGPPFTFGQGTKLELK	82.6
Anti-SIRPα antibody C42 (antibody, human IgG4, V domains shown, Mouse variable regions; also called 042c) VH: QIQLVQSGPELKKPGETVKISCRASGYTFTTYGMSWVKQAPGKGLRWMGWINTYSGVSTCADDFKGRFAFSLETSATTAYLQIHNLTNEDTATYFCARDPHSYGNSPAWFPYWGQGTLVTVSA VL: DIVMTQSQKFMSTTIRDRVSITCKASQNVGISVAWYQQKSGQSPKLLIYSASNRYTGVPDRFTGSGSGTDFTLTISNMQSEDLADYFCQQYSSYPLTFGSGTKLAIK	93.9
Anti-SIRPα antibody C25 (antibody, V domains shown, Mouse variable regions; also called 025c; 025) VH: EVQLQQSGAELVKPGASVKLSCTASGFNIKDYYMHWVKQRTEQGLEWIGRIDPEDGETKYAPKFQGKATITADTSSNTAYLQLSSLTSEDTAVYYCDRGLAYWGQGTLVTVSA VL: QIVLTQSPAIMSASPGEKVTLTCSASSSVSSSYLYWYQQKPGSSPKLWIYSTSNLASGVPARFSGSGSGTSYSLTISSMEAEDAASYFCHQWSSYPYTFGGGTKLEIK	19.1
Anti-SIRPα antibody C73 (antibody, human IgG4, V domains shown, Mouse variable regions; also called 073c; 073C) VH: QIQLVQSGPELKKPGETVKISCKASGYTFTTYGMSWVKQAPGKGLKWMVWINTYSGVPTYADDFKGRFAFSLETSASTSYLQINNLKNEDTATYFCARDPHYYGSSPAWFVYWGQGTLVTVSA VL: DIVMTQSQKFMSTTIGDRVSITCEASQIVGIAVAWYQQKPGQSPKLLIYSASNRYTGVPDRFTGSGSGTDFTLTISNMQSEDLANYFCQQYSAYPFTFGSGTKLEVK	93.6
